Test system: CD2F1 mice, ip Colon 26 adenocarcinoma, median survival T/C
EXPERIMENTAL PROTOCOL: NCI In Vivo Anticancer Drug Screen. Data for tumor model Colon 26 Adenocarcinoma (intraperitoneal) in CD2F1 (CDF1) mice
EXPERIMENTAL CONDITIONS: endpoint: median survival time; dose: 1.0 mg/kg/injection; schedule: Q04DX003 (ip); vehicle: saline; higher = longer survival
Inconclusive results and toxic doses are left out.
MEASUREMENT LABEL: T/C

# count of solved cases: 6
CO[C@H](C(=O)[C@@H](O)[C@@H](C)O)[C@@H]1Cc2cc3cc(OC4CC(OC5CC(O)C(O)C(C)O5)C(O)C(C)O4)c(C)c(O)c3c(O)c2C(=O)[C@H]1OC1CC(OC2CC(OC3CC(C)(O)C(O)C(C)O3)C(O)C(C)O2)C(O)C(C)O1 (some centres not stated) :: 98 % of control
CC1CC(C)CC(C)C(O)/C(C#N)=C/C=C/CC(C2CCCC2C(=O)O)OC(=O)CC(O)C(C)C1 (configuration not stated) :: 105 % of control
COc1ccc(CC2C(=O)NC(C)C(=O)N(C)C3C(=O)N(C)C(Cc4ccc(O)c(c4)Oc4ccc(cc4)C3O)C(=O)NC(C)C(=O)NC(C)C(=O)N2C)cc1 (configuration not stated) (tested in a mixture with another compound) :: 98 % of control
COc1ccc(CC2C(=O)NC(C)C(=O)N(C)C3Cc4ccc(cc4)Oc4cc(ccc4O)CC(C(=O)NC(C)C(=O)NC(C)C(=O)N2C)N(C)C3=O)cc1 (configuration not stated) :: 98 % of control
OC(C1CO1)C(O)C1CO1 (configuration not stated) :: 109 % of control
N[C@H](C(=O)O)[C@@H]1CC(Cl)=NO1 :: 102 % of control

# next compound below
Field T/C (CD2F1 mice, ip Colon 26 adenocarcinoma, median survival T/C), entry COc1ccc(CC2C(=O)NC(C)C(=O)N(C)C3C(=O)N(C)C(Cc4ccc(O)c(c4)Oc4ccc(cc4)C3O)C(=O)NC(C)C(=O)NC(C)C(=O)N2C)cc1 (configuration not stated) : 101 % of control

src = PubChem BioAssay AID210
